# subject.of.test: Short transient receptor potential channel 5 (Mus musculus) (UniProt Q9QX29)
# Sequence (Q9QX29 whole entry): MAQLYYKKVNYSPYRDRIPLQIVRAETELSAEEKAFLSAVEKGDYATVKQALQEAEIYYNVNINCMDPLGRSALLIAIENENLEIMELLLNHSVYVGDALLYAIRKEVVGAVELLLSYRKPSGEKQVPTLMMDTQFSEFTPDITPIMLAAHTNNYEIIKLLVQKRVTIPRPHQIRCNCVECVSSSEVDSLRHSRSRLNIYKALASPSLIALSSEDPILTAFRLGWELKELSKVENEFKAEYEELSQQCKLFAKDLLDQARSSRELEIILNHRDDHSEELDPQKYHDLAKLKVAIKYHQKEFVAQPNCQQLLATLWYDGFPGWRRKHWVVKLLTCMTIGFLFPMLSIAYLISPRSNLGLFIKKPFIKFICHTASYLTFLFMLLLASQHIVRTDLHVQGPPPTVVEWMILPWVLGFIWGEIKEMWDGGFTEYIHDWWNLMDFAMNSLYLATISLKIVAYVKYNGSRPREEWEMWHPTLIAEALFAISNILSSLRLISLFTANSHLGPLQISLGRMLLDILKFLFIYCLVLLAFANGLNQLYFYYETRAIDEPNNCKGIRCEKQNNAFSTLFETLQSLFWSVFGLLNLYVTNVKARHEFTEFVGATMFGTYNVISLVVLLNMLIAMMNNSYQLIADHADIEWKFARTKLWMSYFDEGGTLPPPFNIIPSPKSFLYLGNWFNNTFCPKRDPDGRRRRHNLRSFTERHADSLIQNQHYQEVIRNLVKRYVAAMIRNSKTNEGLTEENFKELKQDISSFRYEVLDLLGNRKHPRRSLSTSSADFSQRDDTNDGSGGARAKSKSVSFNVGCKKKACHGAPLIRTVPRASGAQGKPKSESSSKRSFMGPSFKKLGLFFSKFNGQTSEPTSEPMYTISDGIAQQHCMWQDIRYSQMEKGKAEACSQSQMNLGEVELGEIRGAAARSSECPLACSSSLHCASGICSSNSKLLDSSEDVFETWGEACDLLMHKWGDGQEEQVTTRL
# assay.explanation: Inhibition of mouse TRPC5 expressed in Flp-In-T-Rex-HEK293 cells assessed as reduction in […]-induced channel current at 3 uM by automated patch clamp method relative to control
# Type: cell-based
Returns the class for an entry based on its inhibition. Class ranges: low bin (below 20%), mid bin (20% to below 60%), high bin (60% or more)

[ask] Class? Entry: Cc1nc2ccccc2n1Cc1ccccc1
[reply] low bin

---
[ask] Class? Entry: c1coc(CNc2nc3ccccc3n2CCN2CCOCC2)c1
[reply] mid bin

[ask] Class? Entry: c1ccc(Cn2c(NCc3ccncc3)nc3ccccc32)cc1
[reply] low bin

[ask] Class? Entry: c1ccc(Cn2c(NCc3ncco3)nc3ccccc32)cc1
[reply] low bin

[ask] Class? Entry: Fc1cccc(Cn2c(NCc3ccco3)nc3ccccc32)c1
[reply] high bin

[ask] Class? Entry: Fc1cc(Cl)ccc1Cn1c(NCc2ccco2)nc2ccccc21
[reply] high bin
